B1: Ribonuclease, P00648 (parent)
chain: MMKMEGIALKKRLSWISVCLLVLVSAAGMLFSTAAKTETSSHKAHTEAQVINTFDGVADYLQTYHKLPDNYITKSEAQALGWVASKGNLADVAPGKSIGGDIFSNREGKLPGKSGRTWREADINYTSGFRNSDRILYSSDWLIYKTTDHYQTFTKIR

- Variants of: B1
- run-conditions: Bacillus amyloliquefaciens; pH 6.3; 25 °C; Urea; Fluorescence; MES 50 mM; NaCl 0.15 M; reversible: yes; structure 1BNI; whole UniProt chain shown
readout-label: denaturant midpoint (higher = more stable) (M)

   variant_descriptor  unit_annotation  result_value
0          I51A Y125F                M          3.21
1               I123T                M          3.26
2          I51A I123V                M          3.61
3           I51A I98V                M          2.92
